system: soybean; assay: Test C postemergence; format: in vivo, Glycine max; conditions: postemergence, 250 g ai/ha; scale 0 to 100 (0 no effect, 100 complete control)
Overview of recorded Plant response rating, Soybean for various compounds
Please give only the number in your answer, with no unit.

Examples from the recorded data:
INSERT INTO results (compound, recorded_measurement) VALUES
  ('CCCc1cc(C(=O)NCC(F)(F)F)nn1Cc1ccnc(C(F)(F)F)c1 [Compound 105]', 95),
  ('CCc1cc(C(=O)NC2CC2)nn1Cc1ccnc(OCC(F)(F)F)c1 [Compound 200]', 90),
  ('CCNC(=O)c1cc(CC)n(Cc2ccnc(C(F)(F)F)c2)n1 [Compound 196]', 95),
  ('CCc1cc(C(=O)NCC(F)(F)F)nn1Cc1ccnc(C(F)(F)F)c1 [Compound 78]', 85);

# input for lookup
### Prompt Need Plant response rating, Soybean, item CCOc1cc(C(=O)NC2CC2)nn1Cc1ccnc(C(F)(F)F)c1 [Compound 189]
### Response 95

Values compiled from patent US20150105252A1.
